# testedSystem: His-BIR2-3 (125-356, C202A/C213G, XIAP) (Homo sapiens, UniProt P98170, C202A/C213G)
# Construct: additions of His-BIR2-3 (125-356, C202A/C213G, XIAP), fluorescein labeled dimeric SMAC peptide
# Sequence (P98170 125-356 C202A/C213G): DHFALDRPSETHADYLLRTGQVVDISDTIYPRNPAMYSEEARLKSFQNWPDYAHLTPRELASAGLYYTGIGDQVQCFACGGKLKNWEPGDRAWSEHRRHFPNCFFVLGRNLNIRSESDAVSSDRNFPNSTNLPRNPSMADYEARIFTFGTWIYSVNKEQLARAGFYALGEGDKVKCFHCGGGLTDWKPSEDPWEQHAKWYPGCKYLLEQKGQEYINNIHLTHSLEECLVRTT
# protocol: XIAP-BIR2-3 Dimeric SMAC Peptide Homogeneous Time Resolved Fluorescence (HTRF) Assay
# conditionsUsed: XIAP BIR2-3, HTRF, Table 4
reportedProperty: IC50

molecule	assayValue
CN[C@@H](C)C(=O)N[C@H](C(=O)N1C[C@@H]2C[C@H]1C(=O)N[C@@H](Cc1ccc3ccccc3c1)C(=O)N[C@H](C(=O)O)Cc1ccc(cc1)OCc1cn(nn1)[C@H]1C[C@@H](C(=O)N[C@@H](Cc3ccc4ccccc4c3)C(=O)N[C@H](C(=O)N(C)CCC(=O)O)Cc3ccc(cc3)OCc3cn2nn3)N(C(=O)[C@@H](NC(=O)[C@H](C)NC)C(C)(C)C)C1)C(C)(C)C	≤ 1 nM
CN[C@@H](C)C(=O)N[C@H](C(=O)N1C[C@@H]2C[C@H]1C(=O)N[C@@H](Cc1ccc3ccccc3c1)C(=O)N[C@H](C(=O)O)Cc1ccc(cc1)OCc1cn(nn1)[C@H]1C[C@@H](C(=O)N[C@@H](Cc3ccc4ccccc4c3)C(=O)N[C@H](C(=O)N(C)C)Cc3ccc(cc3)OCc3cn2nn3)N(C(=O)[C@@H](NC(=O)[C@H](C)NC)C(C)(C)C)C1)C(C)(C)C	1 to 10 nM
CN[C@@H](C)C(=O)N[C@H](C(=O)N1CCN2CCn3cc(nn3)C[C@@H](C(=O)OC)NC(=O)[C@H](Cc3ccc4ccccc4c3)NC(=O)[C@@H]3CN(CCN3C(=O)[C@@H](NC(=O)[C@H](C)NC)C(C)C)CCn3cc(nn3)C[C@@H](C(=O)O)NC(=O)[C@H](Cc3ccc4ccccc4c3)NC(=O)[C@@H]1C2)C(C)C	1 to 10 nM
CN[C@@H](C)C(=O)N[C@H](C(=O)N1C[C@@H]2C[C@H]1C(=O)N[C@@H](Cc1ccc3ccccc3c1)C(=O)N[C@H](C(=O)O)Cc1ccc(cc1)OCc1cn(nn1)[C@H]1C[C@@H](C(=O)N[C@@H](Cc3ccc4ccccc4c3)C(=O)N[C@H](C(=O)NCCC(=O)O)Cc3ccc(cc3)OCc3cn2nn3)N(C(=O)[C@@H](NC(=O)[C@H](C)NC)C(C)(C)C)C1)C(C)(C)C	1 to 10 nM
CN[C@@H](C)C(=O)N[C@H](C(=O)N1C[C@@H]2C[C@H]1C(=O)N[C@@H](Cc1ccc3ccccc3c1)C(=O)N[C@H](C(=O)NS(=O)(=O)C1CC1)Cc1ccc(cc1)OCc1cn(nn1)[C@H]1C[C@@H](C(=O)N[C@@H](Cc3ccc4ccccc4c3)C(=O)N[C@H](C(=O)NS(=O)(=O)C3CC3)Cc3ccc(cc3)OCc3cn2nn3)N(C(=O)[C@@H](NC(=O)[C@H](C)NC)C(C)(C)C)C1)C(C)(C)C	≤ 1 nM
CN[C@@H](C)C(=O)N[C@H](C(=O)N1C[C@@H]2C[C@H]1C(=O)N[C@@H](Cc1ccc3ccccc3c1)C(=O)N[C@H](C(=O)O)Cc1ccc(cc1)OCc1cn(nn1)[C@H]1C[C@@H](C(=O)N[C@@H](Cc3ccc4ccccc4c3)C(=O)N[C@H](C(=O)OC)Cc3ccc(cc3)OCc3cn2nn3)N(C(=O)[C@@H](NC(=O)[C@H](C)NC)C(C)(C)C)C1)C(C)(C)C	> 10 nM
CN[C@@H](C)C(=O)N[C@H](C(=O)N1C[C@@H]2C[C@H]1C(=O)N[C@@H](Cc1ccc3ccccc3c1)C(=O)N[C@H](C(=O)O)Cc1ccc(cc1)OCc1cn(nn1)[C@H]1C[C@@H](C(=O)N[C@@H](Cc3ccc4ccccc4c3)C(=O)N[C@H](C(=O)N(C)CC(=O)O)Cc3ccc(cc3)OCc3cn2nn3)N(C(=O)[C@@H](NC(=O)[C@H](C)NC)C(C)(C)C)C1)C(C)(C)C	1 to 10 nM
CN[C@@H](C)C(=O)N[C@H](C(=O)N1C[C@@H]2C[C@H]1C(=O)N[C@@H](Cc1ccc3ccccc3c1)C(=O)N[C@H](C(=O)O)Cc1ccc(cc1)OCc1cn(nn1)[C@H]1C[C@@H](C(=O)N[C@@H](Cc3ccc4ccccc4c3)C(=O)N[C@H](C(=O)N3CCC(C(=O)O)C3)Cc3ccc(cc3)OCc3cn2nn3)N(C(=O)[C@@H](NC(=O)[C@H](C)NC)C(C)(C)C)C1)C(C)(C)C (stereo partly shown)	1 to 10 nM
CN[C@@H](C)C(=O)N[C@H](C(=O)N1C[C@@H]2C[C@H]1C(=O)N[C@@H](Cc1ccc3ccccc3c1)C(=O)N[C@H](C(=O)O)Cc1ccc(cc1)OCc1cn(nn1)[C@H]1C[C@@H](C(=O)N[C@@H](Cc3ccc4ccccc4c3)C(=O)N[C@H](C(=O)NS(=O)(=O)c3ccc(OC(F)(F)F)cc3)Cc3ccc(cc3)OCc3cn2nn3)N(C(=O)[C@@H](NC(=O)[C@H](C)NC)C(C)(C)C)C1)C(C)(C)C	1 to 10 nM
CN[C@@H](C)C(=O)N[C@H](C(=O)N1CCN2CCn3cc(nn3)C[C@@H](C(=O)O)NC(=O)[C@H](Cc3ccc4ccccc4c3)NC(=O)[C@@H]3CN(CCN3C(=O)[C@@H](NC(=O)[C@H](C)NC)C(C)(C)C)CCn3cc(nn3)C[C@@H](C(=O)O)NC(=O)[C@H](Cc3ccc4ccccc4c3)NC(=O)[C@@H]1C2)C(C)(C)C	> 10 nM

FYI, the data here is from patent US20140309265A1.
